Origin of the recorded values: ChEMBL document CHEMBL4513216

Assay: Toxicity liver stage against HepG2, at 10uM
Format: cell-based
Set-up: test concentration 10 uM, cell line HepG2-A16-CD81EGFP
Details: human, HepG2-A16-CD81EGFP cells; read-out: INHIBITION
Consider the following molecules; for each one, report its cytotoxicity at 10 µM.
I only need the number, in %, no unit after it.

Lab note: `c1cn(CCc2c[nH]cn2)c(-c2cc(CN3CCCC3)cs2)n1` gave cytotoxicity at 10 µM of -1.45

Per the record, CCCc1nc(CN2CCCC2Cn2cncn2)cs1 (configuration not stated) has cytotoxicity at 10 µM of -9.39

Summary for this molecule, `CC(=O)N1CCCn2c(nc(CNS(=O)(=O)C3CC3)cc2=O)C1` : cytotoxicity at 10 µM is 2.71

get_value(item= COc1ccccc1N1CCC(CNCc2cccc(O)c2)C1 (configuration not stated) , readout=cytotoxicity at 10 µM) returns -9.04

Kindly note the recorded cytotoxicity at 10 µM for Nc1cc(CCC2CN(Cc3ccc(C(=O)O)cc3)CCO2)ccn1 (configuration not stated) , which is 6.98

Quick note, cytotoxicity at 10 µM for COc1ccc(CCNC(=O)C(C)Nc2cccc(C)c2C)cc1 (configuration not stated) landed at -5.91

So, `CCCNC(=O)Cn1nc(C)c2cnn(C(C)(C)C)c2c1=O` ? Its cytotoxicity at 10 µM was -3.57

For record COc1ccccc1CC(=O)N1CCCC(c2nccn2CC(N)=O)C1 (configuration not stated) the listed cytotoxicity at 10 µM is 12.9

# molecule `COCCN(CCOC)C(=O)c1sc(C)nc1C` ; its cytotoxicity at 10 µM = 2.16

Noted for `Clc1ccccc1CCn1ccnc1-c1cn(C2CCNCC2)nn1` : its cytotoxicity at 10 µM reads 0.33

Measured cytotoxicity at 10 µM, Nc1cc(C(=O)NC2CCCN(CCCc3ccccc3)C2)ccn1 (configuration not stated) : 8.01

Input `CCn1cnnc1CNC(=O)Cc1ccc2c(c1)OCCO2` . Output cytotoxicity at 10 µM: -3.27

---

Test: Toxicity liver stage against HepG2, at 10uM
Format: cell-based
Set-up: test concentration 10 uM, cell line HepG2-A16-CD81EGFP
Details: human, HepG2-A16-CD81EGFP cells; read-out: INHIBITION
REPORTED_PROPERTY: cytotoxicity at 10 µM (%)
Give the value in % but do not write % after it.

# cytotoxicity at 10 µM of CCOC(=O)C1CCCCN1Cc1c[nH]nc1-c1cc2ccccc2o1 (stereo unspecified) = 4.8

Consider CN(CC(=O)NCCC#N)C(c1ccccc1)c1ccc(F)cc1 (stereo unspecified) . Its measured cytotoxicity at 10 µM is -4.34

The measured cytotoxicity at 10 µM associated with `CNc1ncc(CN(C)C(=O)c2cccc(CC3CCNCC3)c2)cn1` reads -19.7

Memo: `Cc1nc(N2C[C@@H](CN3CCCN(C)CC3)[C@@H](CO)C2)c2sccc2n1` , reported cytotoxicity at 10 µM: -8.64

GET /value?item= Cc1ccccc1OCC1CCCN(C(=O)CNC(=O)N(C)C)C1 (stereo unspecified) &field=cytotoxicity at 10 µM returns -4.46

Entry `COC(=O)c1cccn1C1CCN(C(=O)c2ccc(C)[nH]c2=O)CC1` ; cytotoxicity at 10 µM = -3.78

Per the record, c1ccc(-n2cc(CNCC3CCCN3c3cccnn3)cn2)cc1 (stereo unspecified) has cytotoxicity at 10 µM of -8.85

Quick note, cytotoxicity at 10 µM for `CSCc1noc(CNC(=O)c2cc(C)c(C)[nH]c2=O)n1` landed at 0.355

Lookup result for `CCCN(CC(=O)N1CCNCC1)C(=O)c1cccc(Cl)c1` ; measured cytotoxicity at 10 µM: 10.7

Value of cytotoxicity at 10 µM reported for the compound `Cc1occc1C(=O)N1CCc2ncnc(-c3cnn(C)c3)c2CC1` is -4.77

Lookup result for O=C(CN1CCCC1)N1CCCC1c1nc(O)cc(-c2ccccn2)n1 (stereo unspecified) ; measured cytotoxicity at 10 µM: -10.7

---

Task for the reader: assign each of the following compounds its reported cytotoxicity at 10 µM.
Experiment: Toxicity liver stage against HepG2, at 10uM
Type: cell-based
Set-up: test concentration 10 uM, cell line HepG2-A16-CD81EGFP
Details: human, HepG2-A16-CD81EGFP cells; read-out: INHIBITION
Return type: number; implicit unit %.

The value of cytotoxicity at 10 µM measured for the compound `CC(C)(N)CN1CCC(c2nnc(CN3CCCC3)n2C2CC2)CC1` turned out to be 19.2

Field cytotoxicity at 10 µM (entry CC(C)Cc1cc(C(=O)NCC2CCN(c3ccccc3F)C2)on1 (stereo not given) ) reads 0.075

Reported cytotoxicity at 10 µM of `Cc1cnc(CCNC(=O)NCCc2ccc(O)cc2)s1` : -0.276

Looking up `Cc1ccoc1C(=O)N1CC[C@H]2[C@H](C[C@@H](CN3CCCC3)N2C)C1` , I see its cytotoxicity at 10 µM listed as 4.42

cytotoxicity at 10 µM measured on `CN(C)C(=O)c1c[nH]nc1C1CCN(S(=O)(=O)c2ccc(Cl)cc2)CC1` = -4.9

---

For each record, write down the corresponding cytotoxicity at 10 µM.
Assay: Toxicity liver stage against HepG2, at 10uM
Type: cell-based
Design: test concentration 10 uM, cell line HepG2-A16-CD81EGFP
Settings: human, HepG2-A16-CD81EGFP cells; read-out: INHIBITION
State the answer as a number, implicitly in %.

Looking up `O=C(O)c1cncc(Cc2ccc(F)cc2)c1` , I see its cytotoxicity at 10 µM listed as 2.39

For reference, reported cytotoxicity at 10 µM for c1csc(-c2nc(CNC3CCc4ncnn4C3)cs2)c1 (configuration not stated) stands at 2.07

Entry `Cc1cn(CC(=O)NC2CCN(C(=O)C3CC3)CC2)c2ccccc12` — recorded cytotoxicity at 10 µM = -3.57

The molecule listed as `Cc1nc(-c2ccc(S(=O)(=O)N3CCC4(CC3)OCCO4)cc2)co1` shows cytotoxicity at 10 µM equal to 1.69

Sure, the documented cytotoxicity at 10 µM for `COc1cc2c(cc1-c1nc3c(cnn3C)[nH]1)OCO2` is -8.9

Just so you know, measured cytotoxicity at 10 µM for O=S(=O)(c1cccc(Cl)c1)N1CCCC(Cn2cncn2)C1 (configuration not stated) came out at -7.21

Noted for `CSCCCNC(=O)Nc1cccc(-c2nccn2C)c1` : its cytotoxicity at 10 µM reads -6.25

The reported cytotoxicity at 10 µM of the molecule `Cc1cccc(CN2CCCC[C@H]3CN(c4ncccn4)C[C@H]32)c1` was 1.18

The recorded cytotoxicity at 10 µM for entry `Cc1ccc2c(n1)N(Cc1ccncc1)CCN(S(C)(=O)=O)C2` equals -77.2

// field: cytotoxicity at 10 µM; key: Cn1c(CO)cnc1SC1CCCN(c2ccccc2F)C1=O (configuration not stated) ; value = -4

What the record says about `O=C(Nc1ccccn1)N(CCO)Cc1ccccc1Br` : cytotoxicity at 10 µM is -14.4

cytotoxicity at 10 µM in this record for `Cc1sc(C(=O)O)cc1S(=O)(=O)Nc1c(F)cccc1-n1cccn1` : -1.37

---

Assay: Toxicity liver stage against HepG2, at 10uM
Assay type: cell-based
Parameters: test concentration 10 uM, cell line HepG2-A16-CD81EGFP
Conditions: human, HepG2-A16-CD81EGFP cells; read-out: INHIBITION
REPORTED_PROPERTY: cytotoxicity at 10 µM (%)
Numeric answer only, unit % assumed.

Just so you know, measured cytotoxicity at 10 µM for O=C(Nc1nccs1)NC1CCN(Cc2ccccc2)C1 (configuration not stated) came out at -9.93

Please fill in: cytotoxicity at 10 µM reported for CCc1noc(C(C)N(C)Cc2ccc(OC)c(OC)c2)n1 (configuration not stated) = -7.13

Briefly, cytotoxicity at 10 µM measured for `COCc1csc(NC(=O)NCc2ncccc2C)n1` : -2.6

Lookup result for Cc1ccc(-c2nc(CN3CCOC(Cn4cccn4)C3)co2)cc1 (configuration not stated) ; measured cytotoxicity at 10 µM: -5.3

Sample Nc1nc2c(c(NCC(c3cccnc3)N3CCOCC3)n1)CCCC2 (configuration not stated) ; cytotoxicity at 10 µM observed: -14.9

Entry `COC(=O)C1CCN(CC2(c3ccc(C)cn3)CCNCC2)CC1` , cytotoxicity at 10 µM reported as -0.471

Item: `O=C(O)CNc1cc(-c2nccnc2N2CCCC2)c2cc[nH]c2n1` | cytotoxicity at 10 µM: 4.9

cytotoxicity at 10 µM recorded for this compound, `CN(C)C(=O)c1cccc(NC(=O)c2cnn(C)c2)c1` , is -1.96

Entry Cc1csc(NC(=O)C2CSCCC(=O)N2)n1 (configuration not stated) , cytotoxicity at 10 µM reported as 4.14

Form field cytotoxicity at 10 µM, entry Cc1ccc(CC(=O)N2CCOCC2c2ncon2)cc1 (configuration not stated) : -2.03

So, `COc1cccc(OC2CN(C(=O)CCn3cnnn3)C2)c1` ? Its cytotoxicity at 10 µM was -0.0726

Note to self: cytotoxicity at 10 µM recorded for Cn1nccc1CCC(=O)N1CCOC(c2cnccn2)C1 (configuration not stated) was -25.9
